- system name: monoclonal antibody (2F5)
- Assay type: binding, mouse
parameter: concentration for 50% inhibition of antibody binding in the ELISA (ng/mL)
Give bare numbers, in ng/mL.

Batch request: concentration for 50% inhibition of antibody binding in the ELISA for each of the following molecules.
1. COc1cc2c(c3oc(=O)c4c(c13)CCC4=O)[C@@H]1C=CO[C@@H]1O2 [Aflatoxin B1, aflatoxin B1]
2. COc1cc2c(c3oc(=O)c4c(c13)CCOC4=O)[C@@H]1C=CO[C@@H]1O2 [Aflatoxin G1, aflatoxin G1]
3. COc1cc2c(c3oc(=O)c4c(c13)CCOC4=O)[C@@H]1CCO[C@@H]1O2 [Aflatoxin G2, aflatoxin G2]
4. COc1cc2c(c3oc(=O)c4c(c13)CCC4=O)[C@]1(O)C=CO[C@@H]1O2 [Aflatoxin M1, aflatoxin M1]
5. COc1cc2c(c3oc(=O)c4c(c13)CCC4=O)[C@@H]1CCO[C@@H]1O2 [Aflatoxin B2, aflatoxin B2]

Ans.
[2.8, 1.6, 56.2, 63.1, 70.8]
